System: SNB-19
Assay: NCI tumour cell line growth inhibition, 48 h
Calls of active or inactive are those of the source. Rule as the data show it: active = GI50 up to about 1.1 µM and inactive = higher.
Outcomes: true (1) for active, false (0) for inactive

INSERT INTO measurements (molecule, category_label) VALUES
  ('Cc1c(CCO)c(O)n2c(nc3ccccc32)c1C#N', 'false (0)'),
  ('CN1C(=S)CSc2ccccc21', 'false (0)'),
  ('CCOC(=O)c1c(-c2cccc(Cl)c2)c(C(=O)OC)c(C)c2sc(C=O)nc12', 'false (0)'),
  ('CC1=C(C(=O)O)N2C(=O)[C@@H](NC(=O)C(c3ccc(O)cc3)N3CSC(=S)N(C(C)C)C3)C2SC1 (stereo partly specified)', 'false (0)'),
  ('CC1(C)CC(=O)C(=CNc2nc(-c3ccccc3)cs2)C(=O)C1', 'false (0)'),
  ('COc1cc(CN[C@H]2CCc3cc(OC)c(OC)c(OC)c3-c3ccc(SC)c(=O)cc32)cc(OC)c1', 'true (1)'),
  ('N=C(N)N/N=C\c1c(-c2cccc([N+](=O)[O-])c2)nc2sc(Cl)cn12', 'false (0)'),
  ('N#Cc1nnn(-c2ccc(Br)cc2)c1O', 'false (0)'),
  ('C[C@]12CCC3c4ccc(O)cc4CC[C@H]3C1CC(=O)NC2=O (stereo partly specified)', 'false (0)'),
  ('CC(C)(C)OC(=O)CC(NC(=O)OC(C)(C)C)C(=O)NC(C(=O)O)C(O)c1ccccc1 (stereo unspecified)', 'false (0)'),
  ('CN(C)c1cccc(/C=C(\C#N)c2ccccc2)c1', 'false (0)'),
  ('COc1cc(C/C=C/c2ccccc2)c(OC)cc1O', 'false (0)'),
  ('CCOc1ccc(N/C(=C(/C(Cl)=C(/Cl)Nc2ccccc2)[N+](=O)[O-])n2nnc3ccccc32)cc1', 'false (0)'),
  ('O=C1/C(=C\c2cccc(Oc3ccccc3)c2)SC(c2ccccc2)N1c1cc(Cl)ccc1Cl (stereo unspecified)', 'false (0)'),
  ('CC(=O)OCc1ccc(-c2nc(C#N)c(N)o2)o1', 'false (0)'),
  ('CCOC(CN(C)C(=O)Nc1ccc(Cl)c(Cl)c1)OCC', 'false (0)');

----------
Test system: MDA-N
Assay: NCI tumour cell line growth inhibition, 48 h
Active and inactive are the calls of the source. Cut-off read from the data, not from the text of the source: active = GI50 up to about 1.1 µM and inactive = higher. Starred links: 1 amine or outer side, 2 acyl side, 3 side chain; linkers in the order of their positions; H or OH if unused. Non-standard residues stand in square brackets, D forms with d. Residues, ends and D or L forms follow the SMILES beside them. *: point of attachment. X47 = CCC(=O)CC1CC(C)CC(C(=O)[*:2])N1[*:1]; X46 = CCCCCCCCC(C)C(=O)*; Aib = CC(C)(N)C(=O)O; X48 = CC(CN(C)CCO)N*
property name: GI50

INSERT INTO assay_data (molecule, result) VALUES
  ('COc1cccc(-c2nc(-c3cnccn3)n(Cc3ccccc3)n2)c1', '> 100 µM (inactive)'),
  ('COC(=O)CNS(=O)(=O)c1ccc(-c2c3nc(c(-c4ccc(S(=O)(=O)NCC(=O)OC)cc4)c4ccc([nH]4)c(-c4ccc(S(=O)(=O)NCC(=O)OC)cc4)c4nc(c(-c5ccc(S(=O)(=O)NCC(=O)OC)cc5)c5ccc2[nH]5)C=C4)C=C3)cc1', '> 100 µM (inactive)'),
  ('CCN(CC)c1ccc(C(=C2C=CC(=[N+](CC)CC)C=C2)c2ccc(N(CC)CC)cc2)cc1', '0.103 µM (active)'),
  ('CCCCC(=O)/C=c1/cc(C)[nH]c2cccc3cnn1c32', '> 100 µM (inactive)'),
  ('CC(=O)N(C)c1ccc(Nc2ccnc3ccc4nn(C)nc4c23)cc1', '36.1 µM (inactive)'),
  ('OC1C2CN3CCN(C2)CC1(c1ccccc1)C3 (stereo not drawn)', '> 100 µM (inactive)'),
  ('CCCCCCCCC(C)C(=O)N1CCCC1C(=O)N1C(CC(=O)CC)CC(C)CC1C(=O)NC(C)C(=O)NC(C)(C)C(=O)NC(C)(C)C(=O)NC(C(=O)NC(C)C(=O)NC(C)(C)C(=O)NC(C)(C)C(=O)NC(C)CN(C)CCO)C(C)CC (stereo not drawn) (X46-P[X47]A[Aib][Aib]IA[Aib][Aib]-X48; configuration not given here)', '1.17 µM (inactive)'),
  ('Oc1nc(-c2ccc3ccccc3c2)nc2ccccc12', '49.2 µM (inactive)');

----------
System: MDA-N
Experiment: NCI tumour cell line growth inhibition, 48 h
The source made the active and inactive calls. Rule as the data show it: active = GI50 up to about 1.1 µM and inactive = higher.
Outcomes: Yes for active, No for inactive

INSERT INTO results (compound, subject_of_test, category_label) VALUES
  ('O=S(=O)(N/N=C1\CC2CCC1C2)c1ccccc1 (centres undefined)', 'MDA-N', 'No'),
  ('Cc1cc(C)c(/C=C2\C(=O)Nc3ccccc32)[nH]1', 'MDA-N', 'No'),
  ('O=C1C(N2CCNCC2)=C(Cl)C(=O)c2ncccc21', 'MDA-N', 'No'),
  ('N#CC[C@@H](O)COc1ccccc1', 'MDA-N', 'No'),
  ('CC1(C)CC(=O)c2c(nc3c4c([nH]c(-c5ccc([N+](=O)[O-])cc5)c24)CC(C)(C)C3)C1', 'MDA-N', 'No'),
  ('CCOc1ccc(N/C(=C(/C(Cl)=C(/Cl)Nc2ccccc2)[N+](=O)[O-])n2nnc3ccccc32)cc1', 'MDA-N', 'No'),
  ('OC1(C(O)(c2ccc(-c3ccccc3)cc2)c2ccc(-c3ccccc3)cc2)CCCCC1', 'MDA-N', 'No'),
  ('C/C(=N\Nc1nc2ccccc2s1)c1cc2ccccc2cn1', 'MDA-N', 'No'),
  ('Oc1ccc(C(=C(Br)c2ccccc2)c2ccc(O)cc2)cc1', 'MDA-N', 'No'),
  ('O=c1cc(-c2ccccc2F)[nH]c2ccc(N3CCCC3)cc12', 'MDA-N', 'Yes'),
  ('CCCNC(C#N)c1ccc(C(C#N)NCCC)cc1 (centres undefined)', 'MDA-N', 'No'),
  ('Nc1nc(N)nc(CC(=O)O)n1', 'MDA-N', 'No'),
  ('N#Cc1nnn(-c2ccc(Br)cc2)c1O', 'MDA-N', 'No'),
  ('COc1ccc(/C=C/c2cc(O)cc(OC3OC(CO)C(O)C(O)C3O)c2)cc1O (centres undefined)', 'MDA-N', 'No'),
  ('COc1ccc(C(SCCO)(c2ccccc2)c2ccc(OC)cc2)cc1', 'MDA-N', 'No'),
  ('Cc1ccc2c(c1)C(=O)C1(C2)Cc2ccc(C)cc2C1=O', 'MDA-N', 'No'),
  ('CN(C)c1ccc(/C=C2\Oc3ccccc3C2=O)cc1', 'MDA-N', 'No'),
  ('CC(C)CC1[C@@H](OCc2ccccc2)COS(=O)(=O)N1Cc1ccccc1 (some centres undefined)', 'MDA-N', 'No'),
  ('O=C(Cc1ccccc1)Nc1nc2ccc(Cl)cc2c2nc(-c3ccco3)nn12', 'MDA-N', 'No'),
  ('O=C1Oc2ccccc2C(=O)/C1=C/NC(=S)Nc1ccccc1', 'MDA-N', 'No'),
  ('CNC(=S)N/N=C(\C)c1nc2cccnc2[nH]1', 'MDA-N', 'No'),
  ('CCOC(=O)C(C/C=C/CO)N(C)C(=O)OC(C)(C)C (centres undefined)', 'MDA-N', 'No'),
  ('Cc1ccc(OCC2CO2)c(Br)c1 (centres undefined)', 'MDA-N', 'No'),
  ('Cn1c(=O)c2nc3c(=O)n(C)c(=O)n(CC(N)=O)c3nc2n(C)c1=O', 'MDA-N', 'No');

----------
Test system: UACC-257
Test: NCI tumour cell line growth inhibition, 48 h
Active and inactive are the calls of the source. Rule as the data show it: active = GI50 up to about 1.1 µM and inactive = higher. Starred links: 1 amine or outer side, 2 acyl side, 3 side chain; linkers in the order of their positions; H or OH if unused. Non-standard residues stand in square brackets, D forms with d. Residues, ends and D or L forms follow the SMILES beside them. *: point of attachment. X47 = CCC(=O)CC1CC(C)CC(C(=O)[*:2])N1[*:1]; X46 = CCCCCCCCC(C)C(=O)*; Aib = CC(C)(N)C(=O)O; X48 = CC(CN(C)CCO)N*
Outcomes: true (1) = active, false (0) = inactive

INSERT INTO results (compound, category_label) VALUES
  ('C/C(=N\Nc1ccccc1Br)c1cccc(/C(C)=N/Nc2ccccc2Br)n1', 'false (0)'),
  ('CCOC(=O)CNC(=O)C(CSCc1ccc(Br)cc1)NC(=O)CCC(N)C(=O)OCC (centres undefined)', 'false (0)'),
  ('CN(C)/N=N/c1ccc(NC=O)cc1', 'false (0)'),
  ('CC(=O)N1N=C(c2cc(C)ccc2O)CC1c1cccc(Cl)c1 (centres undefined)', 'false (0)'),
  ('O=C1Nc2ccccc2C(=O)/C1=C/NC(=S)NCCc1ccccc1', 'false (0)'),
  ('COc1cc(OC)cc(Oc2nc3ccc(C(F)(F)F)cc3nc2-c2ccccc2)c1', 'false (0)'),
  ('OC1(C(O)(c2ccc(-c3ccccc3)cc2)c2ccc(-c3ccccc3)cc2)CCCCC1', 'false (0)'),
  ('CC1=C(C(=O)NCc2ccccc2)C(c2ccco2)C(C(=O)NCc2ccccc2)=C(C)N1', 'false (0)'),
  ('COc1cccc2c1C(=O)c1c(O)c3c(c(O)c1C2=O)CC(O)(C(C)=O)CC3OC1CC([N+](C)(C)C)C(O)C(C)O1 (centres undefined)', 'false (0)'),
  ('Cc1ccnn1CCc1ccc(Cl)cc1Cl', 'false (0)'),
  ('CN1CCOC1c1ccccc1O (centres undefined)', 'false (0)'),
  ('CCCCCCCCC(C)C(=O)N1CCCC1C(=O)N1C(CC(=O)CC)CC(C)CC1C(=O)NC(C)C(=O)NC(C)(C)C(=O)NC(C)(C)C(=O)NC(C(=O)NC(C)C(=O)NC(C)(C)C(=O)NC(C)(C)C(=O)NC(C)CN(C)CCO)C(C)CC (centres undefined) (X46-P[X47]A[Aib][Aib]IA[Aib][Aib]-X48; configuration not given here)', 'true (1)'),
  ('O=[N+]([O-])c1ccc(N/N=C2/CC3=C2CCCCCCCCCC3)c([N+](=O)[O-])c1', 'false (0)'),
  ('CC1(C)CC(=O)c2c(nc3c4c([nH]c(-c5ccc([N+](=O)[O-])cc5)c24)CC(C)(C)C3)C1', 'false (0)'),
  ('O=C(CCc1ccccc1)CC1OC(=O)C(Cl)=C1Cl (centres undefined)', 'false (0)'),
  ('N#CC[C@@H](O)COc1ccccc1', 'false (0)'),
  ('CCOC(=O)C1S/C(=N\c2ccc(Cl)cc2Cl)N=C1C (centres undefined)', 'false (0)'),
  ('CCOC(=O)C(NC(C)=O)(Nc1ccc(S(N)(=O)=O)cc1)C(F)(F)F (centres undefined)', 'false (0)'),
  ('CCOc1ccc(N/C(=C(/C(Cl)=C(/Cl)Nc2ccccc2)[N+](=O)[O-])n2nnc3ccccc32)cc1', 'false (0)');
